# Tested on: A2780 cells
# Assay summary: Cell proliferation assay (A2780)
# Assay type: cell-based
# Run conditions: Homo sapiens, 168 h, 7 days
pIC50: −log10 of the molar value.
Documented pIC50 across a set of compounds

Known results for compounds:
Compound	pIC50
CC(C)(C)OC(=O)N[C@@H](C(=O)N1CCC(C)(OC2CCN(CC(=O)N3CCN(C(=O)c4cc(Cc5n[nH]c(=O)c6ccccc56)ccc4F)CC3)CC2)CC1)C1CCCCC1 [Compound I-871]	6.00 to 7.00
CCc1cccc(-c2cnc(C(=O)N3CCC(CN4CCN(CC(=O)N5CCN(C(=O)c6cc(Cc7n[nH]c(=O)c8ccccc78)ccc6F)CC5)CC4)CC3)c(NC)c2)c1 [Compound I-418]	6.00 to 7.00
CC1(OC(=O)N[C@@H](C(=O)N2CCC(OC3CCN(CC(=O)N4CCN(C(=O)c5cc(Cc6n[nH]c(=O)c7ccccc67)ccc5F)CC4)CC3)CC2)C2CCCCC2)CCC1 [Compound I-749]	7.00 to 8.00

Quick one: give measured pIC50 for CC1(OC2CCN(CC(=O)N3CCN(C(=O)c4cc(Cc5n[nH]c(=O)c6ccccc56)ccc4F)CC3)CC2)CCN(C(=O)[C@H](NC(=O)c2cccc(C3CCCN(C(=O)C4(C)CC4)C3)c2F)C2CCCCC2)CC1 (some centres unmarked) [Compound I-893]
6.00 to 7.00

Quick one: give measured pIC50 for CCc1cccc(-c2cnc(C(=O)N3CCC(CN4CCN(CC(=O)N5CCN(C(=O)c6cc(Cc7n[nH]c(=O)c8ccccc78)ccc6F)CC5)CC4)CC3)c(NC(=O)CN3CCOCC3)c2)c1 [Compound I-333]
6.00 to 7.00

====

# Test system: A2780 cells
# Assay summary: Cell proliferation assay (A2780)
# Type: cell-based
# Run conditions: Homo sapiens, 168 h, 7 days
pIC50: −log10 of the molar value.
Parameter: pIC50

Known results for compounds:
Compound	Value measured
O=C(N[C@@H](C(=O)N1CCN(CC23CCC(C(=O)N4CCN(C(=O)c5cc(Cc6n[nH]c(=O)c7ccccc67)ccc5F)CC4)(CC2)CO3)CC1)C1CCCCC1)c1cccc([C@@H]2CCCN(C(=O)CNC3CC3)C2)c1	7.00 to 8.00
CCc1cccc(-c2cc(N)c(C(=O)N3CCC(CN4CCN(CC(=O)N5CCN(C(=O)c6cc(Cc7n[nH]c(=O)c8ccccc78)ccc6F)CC5)CC4)CC3)c(F)c2)c1	6.00 to 7.00
CC(C)(C)OC(=O)Nc1cc(-c2cccc(C#N)c2)cnc1C(=O)NCCOCCNCC(=O)N1CCN(C(=O)c2cc(Cc3n[nH]c(=O)c4ccccc34)ccc2F)CC1	7.00 to 8.00
CCc1cccc(-c2cnc(C(=O)NCCCCCNCC(=O)N3CCN(C(=O)c4cc(Cc5n[nH]c(=O)c6ccccc56)ccc4F)CC3)c(NC(=O)CNCc3cccc(C)c3)c2)c1	6.00 to 7.00

# input for lookup
Quick one: give measured pIC50 for O=C(N[C@@H](C(=O)N1CCN(CC23CCC(C(=O)N4CCN(C(=O)c5cc(Cc6n[nH]c(=O)c7ccccc67)ccc5F)CC4)(CC2)CO3)CC1)C1CCCCC1)c1cccc([C@H]2CCCN(C(=O)CNC3CC3)C2)c1 (racemic)
7.00 to 8.00

====

Documented pIC50 across a set of compounds
# Tested on: PARP1 (Homo sapiens, UniProt P09874)
# Sequence (P09874 whole entry): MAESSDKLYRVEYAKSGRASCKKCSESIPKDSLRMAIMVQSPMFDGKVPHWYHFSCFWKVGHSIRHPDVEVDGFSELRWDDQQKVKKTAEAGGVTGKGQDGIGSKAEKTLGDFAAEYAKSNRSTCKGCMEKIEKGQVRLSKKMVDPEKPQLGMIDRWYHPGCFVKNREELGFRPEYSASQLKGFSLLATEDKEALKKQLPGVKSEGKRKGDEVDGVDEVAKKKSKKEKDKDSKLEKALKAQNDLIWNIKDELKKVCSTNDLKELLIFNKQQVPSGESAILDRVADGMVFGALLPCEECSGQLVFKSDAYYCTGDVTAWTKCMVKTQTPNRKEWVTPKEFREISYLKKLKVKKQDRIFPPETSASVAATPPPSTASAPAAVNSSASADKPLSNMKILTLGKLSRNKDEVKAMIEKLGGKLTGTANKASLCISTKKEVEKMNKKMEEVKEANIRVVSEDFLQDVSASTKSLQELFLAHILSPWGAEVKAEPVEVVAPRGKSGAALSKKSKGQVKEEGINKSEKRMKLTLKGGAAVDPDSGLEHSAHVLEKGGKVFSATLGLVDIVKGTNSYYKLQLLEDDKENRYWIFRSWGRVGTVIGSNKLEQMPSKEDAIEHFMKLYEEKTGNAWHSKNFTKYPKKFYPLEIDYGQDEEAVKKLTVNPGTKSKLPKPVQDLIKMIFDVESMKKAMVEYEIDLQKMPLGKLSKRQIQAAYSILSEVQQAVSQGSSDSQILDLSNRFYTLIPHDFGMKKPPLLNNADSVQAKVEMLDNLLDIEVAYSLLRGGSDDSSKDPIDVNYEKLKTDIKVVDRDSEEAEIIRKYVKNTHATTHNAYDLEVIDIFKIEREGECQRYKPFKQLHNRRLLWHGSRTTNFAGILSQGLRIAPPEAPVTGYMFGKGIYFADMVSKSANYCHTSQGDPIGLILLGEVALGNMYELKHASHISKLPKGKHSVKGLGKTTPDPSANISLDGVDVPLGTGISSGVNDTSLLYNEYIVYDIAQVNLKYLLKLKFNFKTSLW
# Assay summary: PARP trapping assay in U2OS cells
# Type: cell-based
# Design: endogenous in cells; host or cells: U2OS
# Run conditions: U2OS cells, MMS, 4 hrs; read-out: PARP Trapping (U2OS)
pIC50: −log10 of the molar value.

Quick one: give measured pIC50 for CC(C)(C)C(=O)N1CCCC(c2cccc(C(=O)N[C@@H](C(=O)N3CCC(OC4CCN(CC(=O)N5CCN(C(=O)c6cc(Cc7n[nH]c(=O)c8ccccc78)ccc6F)CC5)CC4)CC3)C3CCCCC3)c2F)C1 (stereo partly shown)
7.00 to 8.00

Quick one: give measured pIC50 for O=C(N[C@@H](C(=O)N1CCC(OC2CCN(CC(=O)N3CCN(C(=O)c4cc(Cc5n[nH]c(=O)c6ccccc56)ccc4F)CC3)CC2)CC1)C1CCCCC1)c1cccc(C2CCCN(C(=O)C34CC(F)(C3)C4)C2)c1F (stereo partly shown)
7.00 to 8.00

Quick one: give measured pIC50 for CCc1cccc(-c2cnc(C(=O)N3CCC(CN4CCN(CC(=O)N5CCN(C(=O)c6cc(Cc7n[nH]c(=O)c8ccccc78)ccc6F)CC5)CC4)CC3)c(NC3CC3)c2)c1
7.00 to 8.00

Quick one: give measured pIC50 for O=C(N[C@@H](C(=O)N1CCC(CC(=O)N2CCN(C(=O)c3cc(Cc4n[nH]c(=O)c5ccccc45)ccc3F)CC2)CC1)C1CCCCC1)c1cccc(C2CCCN(C(=O)C3CC3)C2)c1F (stereo partly shown)
7.00 to 8.00

Quick one: give measured pIC50 for O=C(CN1CCN(CC2CCN(C(=O)c3c(F)cc(-c4ccncn4)cc3F)CC2)CC1)N1CCN(C(=O)c2cc(Cc3n[nH]c(=O)c4ccccc34)ccc2F)CC1
7.00 to 8.00

Quick one: give measured pIC50 for O=C(CN1CCC(OC2CCN(C(=O)c3c(F)cc(-c4cccnn4)cc3F)CC2)CC1)N1CCN(C(=O)c2cc(Cc3n[nH]c(=O)c4ccccc34)ccc2F)CC1
7.00 to 8.00

Quick one: give measured pIC50 for CCc1cccc(-c2cnc(C(=O)NCCOCCNCC(=O)N3CCN(C(=O)c4cc(Cc5n[nH]c(=O)c6ccccc56)ccc4F)CC3)c(NC(C)=O)c2)c1
6.00 to 7.00

Quick one: give measured pIC50 for CCOc1cc(OC)ccc1CNCC(=O)N1CCCC(c2cccc(C(=O)N[C@@H](C(=O)N3CCC(OC4CCN(CC(=O)N5CCN(C(=O)c6cc(Cc7n[nH]c(=O)c8ccccc78)ccc6F)CC5)CC4)CC3)C3CCCCC3)c2)C1 (stereo partly shown)
7.00 to 8.00

Quick one: give measured pIC50 for CCc1cccc(-c2cc(N)c(C(=O)N3CCC(CN4CCN(CC(=O)N5CCN(C(=O)c6cc(Cc7n[nH]c(=O)c8ccccc78)ccc6F)CC5)CC4)CC3)c(F)c2)c1
6.00 to 7.00

Quick one: give measured pIC50 for CCc1cccc(-c2cnc(C(=O)N3CCC(CN4CCN(CC(=O)N5CCN(C(=O)c6cc(Cc7n[nH]c(=O)c8ccccc78)ccc6F)CC5)CC4)CC3)c(NC(=O)CNCc3ccc(F)cc3F)c2)c1
6.00 to 7.00

====

# System: A2780 cells
# Assay summary: Cell proliferation assay (A2780)
# Assay type: cell-based
# Run conditions: Homo sapiens, 168 h, 7 days
pIC50: −log10 of the molar value.
Documented pIC50 across a set of molecules

Quick one: give measured pIC50 for CCOc1cc(OC)ccc1COCC(=O)N1CCCC(c2cccc(C(=O)N[C@@H](C(=O)N3CCN(CC4CCN(CC(=O)N5CCN(C(=O)c6cc(Cc7n[nH]c(=O)c8ccccc78)ccc6F)CC5)CC4)CC3)C3CCCCC3)c2)C1 (some centres unmarked)
7.00 to 8.00

Quick one: give measured pIC50 for O=C(N[C@@H](C(=O)N1CCC(OC2CCN(CC(=O)N3CCN(C(=O)c4cc(Cc5n[nH]c(=O)c6ccccc56)ccc4F)CC3)CC2)CC1)C1CCCCC1)c1cccc(C2CCCN(C(=O)C34CC(F)(C3)C4)C2)c1F (some centres unmarked)
7.00 to 8.00

Quick one: give measured pIC50 for O=C(N[C@@H](C(=O)N1CCN(CC2CCN(CC(=O)N3CCN(C(=O)c4cc(Cc5n[nH]c(=O)c6ccccc56)ccc4F)CC3)CC2)CC1)C1CCCCC1)c1cccc([C@H]2CCCN(C(=O)CNCc3ccc(F)cc3F)C2)c1
6.00 to 7.00

Quick one: give measured pIC50 for O=C(N[C@@H](C(=O)N1CCN(CC2CCN(CC(=O)N3CCN(C(=O)c4cc(Cc5n[nH]c(=O)c6ccccc56)ccc4F)CC3)CC2)CC1)C1CCCCC1)c1cccc(C2CCCN(C(=O)COC3CC3)C2)c1 (some centres unmarked)
6.00 to 7.00

Quick one: give measured pIC50 for O=C(CN1CCN(CC2CCN(C(=O)c3c(F)cc(-c4ccccn4)cc3F)CC2)CC1)N1CCN(C(=O)c2cc(Cc3n[nH]c(=O)c4ccccc34)ccc2F)CC1
7.00 to 8.00

====

# Test system: MDA-MB-436 cells
# Assay summary: Cell proliferation assay (MDA-MB-436)
# Assay type: cell-based
# Run conditions: Homo sapiens, 168 h, 7 days
Parameter: IC50

Provide the reported IC50 (system: MDA-MB-436 cells) for CCc1cccc(-c2cnc(C(=O)N3CCC(CC(=O)N4CCN(C(=O)c5cc(Cc6n[nH]c(=O)c7ccccc67)ccc5F)CC4)CC3)c(NC(=O)CNCc3cccc(C)c3)c2)c1
< 10 nM

Provide the reported IC50 (system: MDA-MB-436 cells) for O=C(CN1CCC(OC2CCN(C(=O)c3c(F)cc(-c4ccccc4)cc3F)CC2)CC1)N1CCN(C(=O)c2cc(Cc3n[nH]c(=O)c4ccccc34)ccc2F)CC1
< 10 nM
